Data origin: ChEMBL document CHEMBL1158469

# Procedure Text: Membrane permeability assessed as drug permeation at 100 uM at pH 7.2 after 8 hrs by PAMPA
# Assay type: ADME
# Experimental Context: pH 7.2, 8 h
Field: logPe. Provide a value for each of the compounds that follow.
Just the number in log cm/s, nothing appended.

Could you share which logPe value was measured for `Cc1cc2c(C(=O)NCC3CCCCC3)c(O)c(O)cc2c(O)c1-c1c(C)cc2c(C(=O)NCC3CCCCC3)c(O)c(O)cc2c1O` ? -6.67

Could you share which logPe value was measured for `Cc1cc2c(C(=O)NCCc3ccccc3)c(O)c(O)cc2c(O)c1-c1c(C)cc2c(C(=O)NCCc3ccccc3)c(O)c(O)cc2c1O` ? -6.49

Could you share which logPe value was measured for Cc1cc2c(C(=O)NCC(C)c3ccccc3)c(O)c(O)cc2c(O)c1-c1c(C)cc2c(C(=O)NCC(C)c3ccccc3)c(O)c(O)cc2c1O (centres undefined) ? -7.51

Could you share which logPe value was measured for Cc1cc2c(C(=O)NC(C)c3ccc(Cl)cc3)c(O)c(O)cc2c(O)c1-c1c(C)cc2c(C(=O)NC(C)c3ccc(Cl)cc3)c(O)c(O)cc2c1O (centres undefined) ? -7.92

Could you share which logPe value was measured for `Cc1cc2c(CC3CCCC3)c(O)c(O)cc2c(O)c1-c1c(C)cc2c(CC3CCCC3)c(O)c(O)cc2c1O` ? -6.27

Could you share which logPe value was measured for `Cc1cc2c(CCc3ccccc3)c(O)c(O)cc2c(O)c1-c1c(C)cc2c(CCc3ccccc3)c(O)c(O)cc2c1O` ? -6.61

Could you share which logPe value was measured for `CCc1ccc(CCNC(=O)c2c(O)c(O)cc3c(O)c(-c4c(C)cc5c(C(=O)NCCc6ccc(CC)cc6)c(O)c(O)cc5c4O)c(C)cc23)cc1` ? -8.15

Could you share which logPe value was measured for `Cc1cc2c(C(=O)NCCc3cccc(Cl)c3)c(O)c(O)cc2c(O)c1-c1c(C)cc2c(C(=O)NCCc3cccc(Cl)c3)c(O)c(O)cc2c1O` ? -7.71

Could you share which logPe value was measured for Cc1cc2c(C(C)C)c(O)c(O)cc2c(O)c1-c1c(C)cc2c(C(C)C)c(O)c(O)cc2c1O [APOGOSSYPOL] ? -7.16

---

# Procedure Text: Cytotoxicity against human PC3-ML cells assessed as cell viability after 72 hrs by ATP-LITE assay
# Type: functional, cell-based
Field: EC50. Provide a value for each of the compounds that follow.
Just the number in µM, nothing appended.

Could you share which EC50 value was measured for `Cc1cc2c(C(=O)Nc3cccc(C(F)(F)F)c3)c(O)c(O)cc2c(O)c1-c1c(C)cc2c(C(=O)Nc3cccc(C(F)(F)F)c3)c(O)c(O)cc2c1O` ? 12.2

Could you share which EC50 value was measured for Cc1cc2c(C(=O)NC(C)c3ccc(Cl)cc3)c(O)c(O)cc2c(O)c1-c1c(C)cc2c(C(=O)NC(C)c3ccc(Cl)cc3)c(O)c(O)cc2c1O (centres undefined) ? 5

Could you share which EC50 value was measured for `CCc1ccc(CCNC(=O)c2c(O)c(O)cc3c(O)c(-c4c(C)cc5c(C(=O)NCCc6ccc(CC)cc6)c(O)c(O)cc5c4O)c(C)cc23)cc1` ? 1.7

Could you share which EC50 value was measured for `Cc1cc2c(Cc3ccccc3)c(O)c(O)cc2c(O)c1-c1c(C)cc2c(Cc3ccccc3)c(O)c(O)cc2c1O` ? 8.3

---

# Target Of Assay: UniProtKB Q16548
# Sequence (Q16548 whole entry): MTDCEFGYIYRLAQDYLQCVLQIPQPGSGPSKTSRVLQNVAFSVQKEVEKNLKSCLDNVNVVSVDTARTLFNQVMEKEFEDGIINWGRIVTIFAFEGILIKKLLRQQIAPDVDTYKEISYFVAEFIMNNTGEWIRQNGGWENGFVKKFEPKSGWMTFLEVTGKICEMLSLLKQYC
pIC50: −log10 of the molar value.
Readout: pIC50

Query pIC50 on UniProtKB Q16548 for `Cc1cc2c(C(C)C)c(O)c(O)cc2c(O)c1-c1c(C)cc2c(C(C)C)c(O)c(O)cc2c1O` < 5.00

---

# Procedure Text: Cytotoxicity against human H1299 cells assessed as cell viability after 72 hrs by ATP-LITE assay
# Format: functional, cell-based
# Experimental Context: NCI-H1299, 72 h
Readout: pEC50
# pEC50 = -log10(concentration in molar units)

Could you share which pEC50 value was measured for `CCc1ccc(CCNC(=O)c2c(O)c(O)cc3c(O)c(-c4c(C)cc5c(C(=O)NCCc6ccc(CC)cc6)c(O)c(O)cc5c4O)c(C)cc23)cc1` ? 6.44

Could you share which pEC50 value was measured for `Cc1cc2c(C(=O)NCc3cccc(Cl)c3)c(O)c(O)cc2c(O)c1-c1c(C)cc2c(C(=O)NCc3cccc(Cl)c3)c(O)c(O)cc2c1O` ? 5.28

Could you share which pEC50 value was measured for `Cc1cc2c(CCc3ccccc3)c(O)c(O)cc2c(O)c1-c1c(C)cc2c(CCc3ccccc3)c(O)c(O)cc2c1O` ? 6.24

Could you share which pEC50 value was measured for Cc1cc2c(C(=O)NC(C)c3ccc(Cl)cc3)c(O)c(O)cc2c(O)c1-c1c(C)cc2c(C(=O)NC(C)c3ccc(Cl)cc3)c(O)c(O)cc2c1O (stereo not given) ? 5.49

Could you share which pEC50 value was measured for `Cc1cc2c(C(=O)NC3Cc4ccccc4C3)c(O)c(O)cc2c(O)c1-c1c(C)cc2c(C(=O)NC3Cc4ccccc4C3)c(O)c(O)cc2c1O` ? 5.15

Could you share which pEC50 value was measured for `Cc1cc2c(C(=O)Nc3ccc(Oc4ccccc4)cc3)c(O)c(O)cc2c(O)c1-c1c(C)cc2c(C(=O)Nc3ccc(Oc4ccccc4)cc3)c(O)c(O)cc2c1O` ? 4.77

Could you share which pEC50 value was measured for `Cc1cc2c(C(=O)NCC3CCCCC3)c(O)c(O)cc2c(O)c1-c1c(C)cc2c(C(=O)NCC3CCCCC3)c(O)c(O)cc2c1O` ? 5.32

Could you share which pEC50 value was measured for `Cc1cc2c(C(=O)Nc3cccc(C(F)(F)F)c3)c(O)c(O)cc2c(O)c1-c1c(C)cc2c(C(=O)Nc3cccc(C(F)(F)F)c3)c(O)c(O)cc2c1O` ? 4.54

Could you share which pEC50 value was measured for `Cc1cc2cc(O)c(O)cc2c(O)c1-c1c(C)cc2cc(O)c(O)cc2c1O` ? 4.87
